Recorded values, source patent US6228382A.

# assay remarks: Determination of the octanol/water partition coefficients (logPow) by HPLC, OECD guideline 117
# Assay type: physicochemical
# particulars: rp 18 hplc; HPLC method, RP 18 column, OECD 117; read-out: logPow (octanol/water partition coefficient)
Could you mark each record YES if its chromatographic logP falls strictly under 4, and NO if it equals or exceeds it?

CCCCCCCCCCCn1sccc1=O [compound 11, 2-n-undecylisothiazolin-3-one]: NO

q: For CCCCCCCCCn1sccc1=O [NITZ, 2-n-nonylisothiazolin-3-one] , is the recorded chromatographic logP below the cut-off of 4?
a: YES

q: Lab note: confirm whether the reported chromatographic logP for this compound is below 4, equality not counting. compound: CCCCCCCCCCCCn1sccc1=O [dodecyl-ITZ, 2-n-dodecylisothiazolin-3-one]
a: NO

q: Determine whether this compound shows chromatographic logP lower than 4 (ties excluded): CCCCCCCCn1sccc1=O [OITZ, 2-n-octylisothiazolin-3-one]
a: YES

q: Criterion: chromatographic logP strictly below 4. Is it met by CCCCCCCCCCn1sccc1=O [DITZ, 2-n-decyl-isothiazolin-3-one] ?
a: NO
